Source: patent US6414147B1

Kindly supply the reported melting point values for the records listed here.

query: For CCCCn1cnc2c(OCC3CC3)nc(Nc3ccc(OC)nc3)nc21 , write its melting point.
result: 148 to 150 °C

query: For CCCCn1cnc2c(OCC(=O)OCC)nc(Nc3ccc(OCC)nc3)nc21 , write its melting point.
result: 77 to 80 °C

query: For CCCCn1cnc2c(OCC)nc(Nc3cnc4ccccc4c3)nc21 , write its melting point.
result: 186 to 188 °C

query: For CCCCn1cnc2c(OC)nc(Nc3ccccc3OC)nc21 , write its melting point.
result: 101 to 103 °C

query: For CCCCn1cnc2c(Oc3cccc(OC)c3)nc(Nc3ccc(F)cc3)nc21 , write its melting point.
result: 185 to 187 °C

query: For CCCCn1cnc2c(OCC(C)C)nc(Nc3ccccc3)nc21 , write its melting point.
result: 77 to 79 °C

query: For CCCCn1cnc2c(OCC(C)C)nc(Nc3cnc4ccccc4c3)nc21 , write its melting point.
result: 68 to 71 °C

query: For COc1nc(Nc2ccccc2)nc2c1ncn2CCC(C)C , write its melting point.
result: 167 to 169 °C

query: For C=C(C)COc1nc(Nc2ccc(OCC)nc2)nc2c1ncn2CCCC , write its melting point.
result: 108 to 110 °C

query: For CCCCn1cnc2c(OCCF)nc(Nc3ccc(OCC)nc3)nc21 , write its melting point.
result: 156 to 157 °C

query: For CCCCn1cnc2c(OCCOCC)nc(Nc3ccccc3)nc21 , write its melting point.
result: 135 to 137 °C

query: For CCCCn1cnc2c(Oc3ccccc3)nc(Nc3ccc(OC)nc3)nc21 , write its melting point.
result: 146 to 148 °C

query: For CCCCn1cnc2c(OCC)nc(Nc3ccc(Cl)cc3)nc21 , write its melting point.
result: 164 °C

query: For CCCCn1cnc2c(Oc3ccccc3)nc(Nc3ccc(OC)cc3OC)nc21 , write its melting point.
result: 129 to 131 °C

query: For CCCCn1cnc2c(OC)nc(Nc3ccc4c(c3)OCO4)nc21 , write its melting point.
result: 160 to 161 °C

query: For CCCCn1cnc2c(OCCOC)nc(Nc3ccc(OC)cc3OC)nc21 , write its melting point.
result: 88 to 89 °C

query: For CCCCn1cnc2c(OCCC(C)C)nc(Nc3ccc(F)cc3)nc21 , write its melting point.
result: 88 to 90 °C

query: For CCCCn1cnc2c(OC(C)COC)nc(Nc3ccccc3)nc21 (stereo not drawn) , write its melting point.
result: 96 to 98 °C

query: For CCCCn1cnc2c(OC)nc(Nc3ccc(OC)c(OC)c3)nc21 , write its melting point.
result: 160 to 162 °C

query: For CCCCn1cnc2c(OCC3CC3)nc(Nc3ccccc3)nc21 , write its melting point.
result: 124 to 126 °C

query: For CCCCn1cnc2c(OCC(F)F)nc(Nc3ccc(OC)nc3)nc21 , write its melting point.
result: 165 to 167 °C

query: For CCCCn1cnc2c(Oc3ccccc3)nc(Nc3ccccc3)nc21 , write its melting point.
result: 124 to 125 °C

query: For CCCCn1cnc2c(OCC)nc(Nc3ccc(OC)cc3OC)nc21 , write its melting point.
result: 86 to 88 °C

query: For CCCCn1cnc2c(OCCO)nc(Nc3ccccc3)nc21 , write its melting point.
result: 108 to 110 °C

query: For CCCCn1cnc2c(OC)nc(Nc3ccccc3C)nc21 , write its melting point.
result: 91 to 93 °C

query: For COc1nc(Nc2ccccc2)nc2c1ncn2Cc1ccccc1 , write its melting point.
result: 165 to 167 °C

query: For CCCCn1cnc2c(OCC(F)(F)F)nc(Nc3ccccc3)nc21 , write its melting point.
result: 102 to 104 °C

query: For CCCCn1cnc2c(OC)nc(Nc3ccccc3OCC)nc21 , write its melting point.
result: 77 to 79 °C

query: For CCCCn1cnc2c(OCC)nc(Nc3ccccc3)nc21 , write its melting point.
result: 159 to 160 °C

query: For CCCCn1cnc2c(OCCOC)nc(Nc3ccc(OC)nc3)nc21 , write its melting point.
result: 138 to 140 °C

query: For CCCCn1cnc2c(OCC)nc(Nc3ccc(OCC)nc3)nc21 , write its melting point.
result: 167 to 169 °C

query: For CCCCn1cnc2c(OCc3ccccc3)nc(Nc3ccccc3)nc21 , write its melting point.
result: 163 to 164 °C

query: For CCCCn1cnc2c(OCc3ccccn3)nc(Nc3ccccc3)nc21 , write its melting point.
result: 136 to 138 °C

query: For CCCCn1cnc2c(OCC)nc(Nc3ccc4ncsc4c3)nc21 , write its melting point.
result: 150 to 152 °C

query: For CCCCn1cnc2c(OCC(C)C)nc(Nc3ccc(OC)nc3)nc21 , write its melting point.
result: 88 to 90 °C

query: For CCCCn1cnc2c(OCc3ccncc3)nc(Nc3ccccc3)nc21 , write its melting point.
result: 136 to 139 °C

query: For CCCCn1cnc2c(OCCOC)nc(Nc3ccc(OCC)nc3)nc21 , write its melting point.
result: 123 to 125 °C

query: For C#CCOc1nc(Nc2ccc(OCC)nc2)nc2c1ncn2CCCC , write its melting point.
result: 151 to 153 °C

query: For CCCCn1cnc2c(OC)nc(Nc3ccc(OC)c(F)c3)nc21 , write its melting point.
result: 178 to 179 °C
